# measurement.protocol: Microsomal stability
# Assay type: in vitro ADME, mouse
# condition.summary: supplementary CSV
Recorded microsomal stability values for a group of molecules are listed next.
A number alone suffices; assume %.

Would you please look over these solved cases?
Cc1cccc(CC(=O)N[C@@H](Cc2ccc(C(F)(F)F)cc2)Cc2nnn[nH]2)c1 : 89
O=C(Cc1cncc(Br)c1)N[C@@H](Cc1ccc(C(F)(F)F)cc1)Cc1nnn[nH]1 [Compound 16w] : 92
O=C(Cc1cccc(Cl)c1)N[C@@H](Cc1ccc(C(F)(F)F)cc1)Cc1nnn[nH]1 [Compound 16e] : 92

Query: Using the record for COc1cccc(CC(=O)N[C@@H](Cc2ccc(C(F)(F)F)cc2)Cc2nnn[nH]2)c1 [Compound 16l] , report its microsomal stability.
Result: 93
